# key: entry, value: pIC50
target: OX1 (Homo sapiens, UniProt O43613); construct: expressed in transfected cells; host or cells: CHO (CHO-OX1, kept under selection antibiotic); assay: Orexin receptor cell-based functional assay, [Ca2+]i by FLIPR, CHO-OX1 cells; conditions: CHO-OX1 cells, [Ca2+]i by FLIPR, antagonist dose-range 0.1 nM-10 μM, EC90 of OXA; read-out: OX1
Sequence (O43613 whole entry): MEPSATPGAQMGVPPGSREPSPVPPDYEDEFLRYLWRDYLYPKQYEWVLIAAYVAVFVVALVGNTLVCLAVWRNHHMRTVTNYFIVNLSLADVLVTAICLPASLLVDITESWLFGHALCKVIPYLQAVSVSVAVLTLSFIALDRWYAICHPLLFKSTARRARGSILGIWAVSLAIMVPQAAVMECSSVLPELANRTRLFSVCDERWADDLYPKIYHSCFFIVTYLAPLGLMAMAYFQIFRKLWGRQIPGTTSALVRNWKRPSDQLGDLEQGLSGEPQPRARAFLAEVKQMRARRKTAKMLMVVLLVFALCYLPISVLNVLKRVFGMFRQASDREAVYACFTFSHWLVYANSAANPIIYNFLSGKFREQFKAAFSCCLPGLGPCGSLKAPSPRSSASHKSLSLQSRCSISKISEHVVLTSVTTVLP
The value called pIC50 is obtained by taking minus log10 of the concentration in mol/L.

As a guide, the following entries are already answered.
| smilesRepr | targetEntity | pIC50 |
| --- | --- | --- |
| C[C@@H]1CCCN(C(=O)c2cc(F)ccc2-c2ncccn2)[C@@H]1CNc1ncc(C(F)(F)F)cn1 | OX1 (Homo sapiens, UniProt O43613) | 8.70 |
| Cc1ccc(-n2nccn2)c(C(=O)N2CCC[C@@H](C)[C@H]2CNc2nc3ccc(Cl)cc3o2)c1 | OX1 (Homo sapiens, UniProt O43613) | 8.00 |
| Cc1ccc(-c2ncccn2)c(C(=O)N2CCC[C@@H](C)[C@H]2CNc2ccc(C(F)(F)F)nn2)c1 | OX1 (Homo sapiens, UniProt O43613) | 7.51 |
| Cc1ccc(-c2ccn(C)n2)c(C(=O)N2CCC[C@@H](C)[C@H]2CNc2ccc(C(F)(F)F)cn2)c1 | OX1 (Homo sapiens, UniProt O43613) | 8.15 |
| Cc1ccc(-c2cnn(C)c2)c(C(=O)N2CCC[C@@H](C)[C@H]2CNc2ncccc2C(F)(F)F)c1 | OX1 (Homo sapiens, UniProt O43613) | 6.34 |
| Cc1ccc(-c2cnn(C)c2)c(C(=O)N2CCC[C@@H](C)[C@H]2CNc2cccc(C)n2)c1 | OX1 (Homo sapiens, UniProt O43613) | 6.66 |

Requested field: pIC50. Item: Cc1cc(F)cc(C(=O)N2CCC[C@@H](C)[C@H]2CNc2ncc(C(F)(F)F)cn2)c1-n1nccn1 8.70
